# target or test system: RIPK1 (Homo sapiens, UniProt Q13546)
# Construct: endogenous in cells
# Sequence (Q13546 1-671): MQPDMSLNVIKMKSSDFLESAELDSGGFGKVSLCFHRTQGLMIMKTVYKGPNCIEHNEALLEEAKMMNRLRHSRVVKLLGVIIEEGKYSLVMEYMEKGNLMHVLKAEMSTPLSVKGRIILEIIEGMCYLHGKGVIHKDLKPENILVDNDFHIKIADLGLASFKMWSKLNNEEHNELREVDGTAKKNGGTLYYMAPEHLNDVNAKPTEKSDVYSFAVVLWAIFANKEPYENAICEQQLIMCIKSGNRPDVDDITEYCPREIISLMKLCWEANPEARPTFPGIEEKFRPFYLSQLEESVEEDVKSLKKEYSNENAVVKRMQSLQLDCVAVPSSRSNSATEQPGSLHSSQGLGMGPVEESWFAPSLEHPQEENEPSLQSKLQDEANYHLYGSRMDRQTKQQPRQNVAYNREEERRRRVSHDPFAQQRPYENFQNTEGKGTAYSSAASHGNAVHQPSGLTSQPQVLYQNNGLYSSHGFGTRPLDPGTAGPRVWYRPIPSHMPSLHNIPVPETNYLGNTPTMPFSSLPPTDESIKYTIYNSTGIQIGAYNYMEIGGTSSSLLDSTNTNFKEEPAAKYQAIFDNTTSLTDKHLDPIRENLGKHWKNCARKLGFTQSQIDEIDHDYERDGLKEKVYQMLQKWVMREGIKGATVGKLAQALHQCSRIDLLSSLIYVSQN
# procedure details: RIPK1 degradation Western Blot assay
# Format: cell-based
# measurement parameters: human cells, 24 h incubation at 37° C., read-out: Degradation Activity (DC50, concentration at which 50% of RIPK1 kinase has been degraded)
readout name: DC50

// below: answered compounds
O=C(NCCOCCC(=O)N1CCC(C(=O)N2N=CCC2c2ccccc2)CC1)[C@@H]1NC2(CCCCC2)[C@@]2(C(=O)Nc3cc(Cl)ccc32)[C@H]1c1cccc(Cl)c1F (some centres unmarked); 1 to 10 µM
Nc1ncnc2c1c(-c1ccc3c(c1)CCN3C(=O)Cc1cccc(OC(F)(F)F)c1)cn2CCCNC(=O)c1ccc(C#CC2CCN(C(=O)CN3CCC(c4ccc(NC5CCC(=O)NC5=O)cc4)CC3)CC2)cc1 (centres unmarked); 1 to 10 µM
Cc1ncsc1-c1ccc([C@H](C)NC(=O)[C@@H]2C[C@@H](O)CN2C(=O)[C@@H](NC(=O)CCN2CC3(CC(Oc4ccc(C(=O)NCCCn5cc(-c6ccc7c(c6)CCN7C(=O)Cc6cccc(OC(F)(F)F)c6)c6c(N)ncnc65)cn4)C3)C2)C(C)(C)C)cc1; 1 to 10 µM
Cn1c(=O)n(C2CCC(=O)NC2=O)c2ccc(CCC(=O)c3ccc(C#Cc4ccc(C(=O)NCCCn5cc(-c6ccc7c(c6)CCN7C(=O)Cc6cccc(OC(F)(F)F)c6)c6c(N)ncnc65)cc4)cn3)cc21 (centres unmarked); < 1 µM

Note: attention shifts to another entry.
Fill in the blank: the reported DC50 of O=C1CCC(C2C(=O)c3cccc(NCCOCCOCCOCCC(=O)N4CCC(C(=O)N5N=CCC5c5ccccc5)CC4)c3C2=O)C(=O)N1 (centres unmarked) is ____.
> 10 µM
